Test system: Streptococcus pneumoniae
assayText: Antibacterial activity against erythromycin-susceptible Streptococcus pneumoniae OC9132
Assay type: functional
Known MIC of a selection of compounds
The answer is to be given in µg/mL; state only the numeric part.

Worked cases, answers included:
[[record]]
compound = "CC[C@H]1OC(=O)[C@H](C)C(=O)[C@H](C)[C@@H](O[C@@H]2O[C@H](C)C[C@H](N(C)C)[C@H]2O)[C@](C)(OC(=O)NN(CC)CCc2ccc(-c3ncccn3)cc2)C[C@@H](C)C(=O)[C@H](C)[C@H]2NC(=O)O[C@@]21C"
assayreadout = "MIC"
testresult = 0.12

[[record]]
compound = "CC[C@H]1OC(=O)[C@H](C)C(=O)[C@H](C)[C@@H](O[C@@H]2O[C@H](C)C[C@H](N(C)C)[C@H]2O)[C@](C)(OC(=O)NN(C)CCc2cnc3ccccc3c2)C[C@@H](C)C(=O)[C@H](C)[C@H]2NC(=O)O[C@@]21C"
assayreadout = "MIC"
testresult = 0.06

[[record]]
compound = "CC[C@H]1OC(=O)[C@H](C)C(=O)[C@H](C)[C@@H](O[C@@H]2O[C@H](C)C[C@H](N(C)C)[C@H]2O)[C@](C)(OC(=O)NN(C)C/C=C/c2ccc(-c3ncccn3)cc2)C[C@@H](C)C(=O)[C@H](C)[C@H]2NC(=O)O[C@@]21C"
assayreadout = "MIC"
testresult = 0.03


Kindly review the next compound as well.
Q. Can you look up the measured MIC of CC[C@H]1OC(=O)[C@H](C)C(=O)[C@H](C)[C@@H](O[C@@H]2O[C@H](C)C[C@H](N(C)C)[C@H]2O)[C@](C)(OC)C[C@@H](C)C(=O)[C@H](C)[C@H]2N(CCCCn3cnc(-c4cccnc4)c3)C(=O)O[C@]12C [TELITHROMYCIN] for me?
A. 0.06

---

System: Streptococcus pneumoniae
assayText: Antibacterial activity against erythromycin-susceptible Streptococcus pneumoniae OC9132
Type: functional
assayReadout: MIC (µg/mL)
Write the answer as a number in µg/mL, unit excluded.

# count of solved cases: 3
[[record]]
structure = "CC[C@H]1OC(=O)[C@H](C)C(=O)[C@H](C)[C@@H](O[C@@H]2O[C@H](C)C[C@H](N(C)C)[C@H]2O)[C@](C)(OC(=O)NN(C)CCc2ccc(-c3ncccn3)s2)C[C@@H](C)C(=O)[C@H](C)[C@H]2NC(=O)O[C@@]21C"
assayreadout = "MIC"
testresult = 0.03

[[record]]
structure = "CC[C@H]1OC(=O)[C@H](C)C(=O)[C@H](C)[C@@H](O[C@@H]2O[C@H](C)C[C@H](N(C)C)[C@H]2O)[C@](C)(OC(=O)NNCCc2cnc3ccccc3c2)C[C@@H](C)C(=O)[C@H](C)[C@H]2NC(=O)O[C@@]21C"
assayreadout = "MIC"
testresult = 0.03

[[record]]
structure = "CC[C@H]1OC(=O)[C@H](C)C(=O)[C@H](C)[C@@H](O[C@@H]2O[C@H](C)C[C@H](N(C)C)[C@H]2O)[C@](C)(OC(=O)NN(C)CCc2ccc(-c3ncccn3)cc2F)C[C@@H](C)C(=O)[C@H](C)[C@H]2NC(=O)O[C@@]21C"
assayreadout = "MIC"
testresult = 0.06


From here, focus on the item given below.
Q. Form field: reported MIC of CC[C@H]1OC(=O)[C@H](C)C(=O)[C@H](C)[C@@H](O[C@@H]2O[C@H](C)C[C@H](N(C)C)[C@H]2O)[C@](C)(OC(=O)NN(C)Cc2ccc(-c3ncccn3)cc2)C[C@@H](C)C(=O)[C@H](C)[C@H]2NC(=O)O[C@@]21C
A. 0.06

---

System: Streptococcus pneumoniae
assayText: Antibacterial activity against erythromycin-resistant Streptococcus pneumoniae OC4421 containing mef(A)
Assay type: functional
# reported MIC; entries follow
State just the number; it will be interpreted in µg/mL.

[[record]]
structure = "CC[C@H]1OC(=O)[C@H](C)C(=O)[C@H](C)[C@@H](O[C@@H]2O[C@H](C)C[C@H](N(C)C)[C@H]2O)[C@](C)(OC(=O)NN)C[C@@H](C)C(=O)[C@H](C)[C@H]2NC(=O)O[C@@]21C"
assayreadout = "MIC"
testresult = 8


Q. Can you look up the measured MIC of CC[C@H]1OC(=O)[C@H](C)C(=O)[C@H](C)[C@@H](O[C@@H]2O[C@H](C)C[C@H](N(C)C)[C@H]2O)[C@](C)(OC(=O)NN(C)Cc2ccc(-c3ncccn3)cc2)C[C@@H](C)C(=O)[C@H](C)[C@H]2NC(=O)O[C@@]21C for me?
A. 1

---

Tested on: Staphylococcus aureus
assayText: Antibacterial activity against erythromycin-susceptible Staphylococcus aureus Smith OC4172
Type: functional
MIC by entry:
Respond with the bare value in µg/mL.

Worked examples, 3 molecules total:
[[record]]
structure = "CC[C@H]1OC(=O)[C@H](C)C(=O)[C@H](C)[C@@H](O[C@@H]2O[C@H](C)C[C@H](N(C)C)[C@H]2O)[C@](C)(OC(=O)NN(C)CCc2ccc(-c3ncccn3)s2)C[C@@H](C)C(=O)[C@H](C)[C@H]2NC(=O)O[C@@]21C"
assayreadout = "MIC"
testresult = 0.25

[[record]]
structure = "CC[C@H]1OC(=O)[C@H](C)C(=O)[C@H](C)[C@@H](O[C@@H]2O[C@H](C)C[C@H](N(C)C)[C@H]2O)[C@](C)(OC(=O)NNCCc2cccc(-c3ncccn3)c2)C[C@@H](C)C(=O)[C@H](C)[C@H]2NC(=O)O[C@@]21C"
assayreadout = "MIC"
testresult = 0.25

[[record]]
structure = "CC[C@H]1OC(=O)[C@H](C)C(=O)[C@H](C)[C@@H](O[C@@H]2O[C@H](C)C[C@H](N(C)C)[C@H]2O)[C@](C)(OC(=O)NNCCc2ccc(-c3ncccn3)cc2)C[C@@H](C)C(=O)[C@H](C)[C@H]2NC(=O)O[C@@]21C"
assayreadout = "MIC"
testresult = 0.25


Q. Fill in: MIC of CC[C@H]1OC(=O)[C@H](C)C(=O)[C@H](C)[C@@H](O[C@@H]2O[C@H](C)C[C@H](N(C)C)[C@H]2O)[C@](C)(OC(=O)NN)C[C@@H](C)C(=O)[C@H](C)[C@H]2NC(=O)O[C@@]21C is ___
A. 8

Q. Param item: CC[C@H]1OC(=O)[C@H](C)C(=O)[C@H](C)[C@@H](O[C@@H]2O[C@H](C)C[C@H](N(C)C)[C@H]2O)[C@](C)(OC(=O)NN(C)CCc2cnc3ccccc3c2)C[C@@H](C)C(=O)[C@H](C)[C@H]2NC(=O)O[C@@]21C
A. 1

---

System: Staphylococcus aureus
assayText: Antibacterial activity against erythromycin-susceptible Staphylococcus aureus Smith OC4172
Format: functional
assayReadout: MIC
Please don't drop the unit; write it after the number.

[[record]]
structure = "CC[C@H]1OC(=O)[C@H](C)C(=O)[C@H](C)[C@@H](O[C@@H]2O[C@H](C)C[C@H](N(C)C)[C@H]2O)[C@](C)(OC(=O)N(C)NCCc2ccc(-c3cnccn3)cc2)C[C@@H](C)C(=O)[C@H](C)[C@H]2NC(=O)O[C@@]21C"
testresult = "0.5 µg/mL"

[[record]]
structure = "CC[C@H]1OC(=O)[C@H](C)C(=O)[C@H](C)[C@@H](O[C@@H]2O[C@H](C)C[C@H](N(C)C)[C@H]2O)[C@](C)(OC(=O)NN(C)CCc2ccc(-c3cnccn3)cc2)C[C@@H](C)C(=O)[C@H](C)[C@H]2NC(=O)O[C@@]21C"
testresult = "0.25 µg/mL"


Proceed to the following item.
Q. What value of MIC on Staphylococcus aureus does CC[C@H]1OC(=O)[C@H](C)C(=O)[C@H](C)[C@@H](O[C@@H]2O[C@H](C)C[C@H](N(C)C)[C@H]2O)[C@](C)(OC(=O)NNCCc2ccc(-c3cnccn3)cc2)C[C@@H](C)C(=O)[C@H](C)[C@H]2NC(=O)O[C@@]21C have?
A. 0.25 µg/mL
